src = paper PMC6259458

test.description: Lipophilicity determination by RP-HPLC (capacity factor k / log k)
Format: physicochemical
condition.set: C18 column, MeOH 70% / H2O 30%, isocratic
// NB: equality with 0.8 counts as Not satisfied; only log k strictly below is Satisfied

Example cases with answers are listed next.
INSERT INTO measurements (compound, class_assignment) VALUES
  ('O=C(Nc1cc(C(F)(F)F)ccc1Cl)c1ccc([N+](=O)[O-])cc1', 'Not satisfied'),
  ('Cc1ccccc1NC(=O)c1ccccc1O [Compound 1, 2-Hydroxy-N-(2-methylphenyl)benzamide]', 'Satisfied'),
  ('O=C(Nc1ccccc1Cl)c1ccc([N+](=O)[O-])cc1 [Compound 8, N-(2-Chlorophenyl)-4-nitrobenzamide]', 'Satisfied');

Threshold test, log k < 0.8: O=C(NCc1ccccc1Cl)c1ccc([N+](=O)[O-])cc1 [Compound 9, N-(2-Chlorobenzyl)-4-nitrobenzamide] Satisfied

Threshold test, log k < 0.8: COc1ccccc1NC(=O)c1ccccc1O [Compound 3, 2-Hydroxy-N-(2-methoxyphenyl)benzamide] Satisfied

Threshold test, log k < 0.8: CCOc1ccccc1NC(=O)c1ccccc1O [Compound 4, N-(2-Ethoxyphenyl)-2-hydroxybenzamide] Satisfied

Threshold test, log k < 0.8: Nc1ccc(C(=O)NCc2ccccc2Cl)cc1 [Compound 11, 4-Amino-N-(2-chlorobenzyl)benzamide] Satisfied

Threshold test, log k < 0.8: "COC(=O)Nc1ccc(C(=O)NCc2ccccc2Cl)cc1" Satisfied

Threshold test, log k < 0.8: CCCOc1ccccc1NC(=O)c1ccccc1O [Compound 5, 2-Hydroxy-N-(2-propoxyphenyl)benzamide] Not satisfied

Threshold test, log k < 0.8: "Cc1cccc(C)c1NC(=O)c1ccccc1O" Satisfied
